tested-system: LdGSTu1 (Leptinotarsa decemlineata, UniProt A0A1P8PEY0)
Construct: full-length LdGSTu1
Sequence (A0A1P8PEY0 1-230): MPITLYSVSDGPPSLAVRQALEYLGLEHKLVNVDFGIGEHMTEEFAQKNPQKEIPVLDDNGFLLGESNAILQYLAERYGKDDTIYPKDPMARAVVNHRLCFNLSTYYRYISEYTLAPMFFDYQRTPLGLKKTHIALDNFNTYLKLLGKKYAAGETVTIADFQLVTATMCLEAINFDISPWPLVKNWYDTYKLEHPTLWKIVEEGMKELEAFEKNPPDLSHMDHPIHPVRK
method-summary: inhibition of GSH-CDNB conjugation by the recombinant enzyme (residual activity at […])
Assay type: biochemical
Collected % values appear next to each entry.

Consider the following illustrative entries.
C/C(=N\C#N)N(C)Cc1ccc(Cl)nc1; 39.1% residual activity at 5 mM
O=[N+]([O-])NC1=NCCN1Cc1ccc(Cl)nc1; 66.4% residual activity at 5 mM
CCOP(=S)(OCC)Oc1nc(Cl)c(Cl)cc1Cl; 70.5% residual activity at 5 mM
CCOP(=S)(OCC)Oc1cc(C)nc(C(C)C)n1; 75.3% residual activity at 5 mM

Then there is this compound:
Param item: `CN1COCN(Cc2cnc(Cl)s2)/C1=N\[N+](=O)[O-]` ; param system: LdGSTu1 (Leptinotarsa decemlineata, UniProt A0A1P8PEY0); output %: 72.3% residual activity at 5 mM
